molecular target: human P2X2/3 receptors (Homo sapiens, UniProt P56373+Q9UBL9); construct: expressed in transfected cells; host or cells: human astrocytoma 1321N1 (1312N1 [sic]); test: Intracellular calcium measurement, antagonist activity at human P2X2/3 receptors (hP2X23 1321N1), Fluo8; assay type: cell-based; settings: column 4); 1321N1 cells, human P2X2/3, Fluo8, agonist ATP at EC50; read-out: 4) hP2X2/3 IC50 [nM] (1321N1)
Sequence (P56373 whole entry): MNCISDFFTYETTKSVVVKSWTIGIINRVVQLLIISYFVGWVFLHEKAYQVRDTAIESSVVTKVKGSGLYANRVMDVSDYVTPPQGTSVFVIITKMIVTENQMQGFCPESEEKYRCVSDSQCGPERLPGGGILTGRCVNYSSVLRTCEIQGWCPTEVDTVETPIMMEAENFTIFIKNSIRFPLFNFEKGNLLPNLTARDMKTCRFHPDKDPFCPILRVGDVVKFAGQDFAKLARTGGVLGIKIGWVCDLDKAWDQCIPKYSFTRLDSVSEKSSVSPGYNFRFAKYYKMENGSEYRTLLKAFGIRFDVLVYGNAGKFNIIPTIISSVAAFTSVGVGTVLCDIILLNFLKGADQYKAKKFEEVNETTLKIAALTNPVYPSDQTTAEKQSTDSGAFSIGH
Sequence (Q9UBL9 whole entry): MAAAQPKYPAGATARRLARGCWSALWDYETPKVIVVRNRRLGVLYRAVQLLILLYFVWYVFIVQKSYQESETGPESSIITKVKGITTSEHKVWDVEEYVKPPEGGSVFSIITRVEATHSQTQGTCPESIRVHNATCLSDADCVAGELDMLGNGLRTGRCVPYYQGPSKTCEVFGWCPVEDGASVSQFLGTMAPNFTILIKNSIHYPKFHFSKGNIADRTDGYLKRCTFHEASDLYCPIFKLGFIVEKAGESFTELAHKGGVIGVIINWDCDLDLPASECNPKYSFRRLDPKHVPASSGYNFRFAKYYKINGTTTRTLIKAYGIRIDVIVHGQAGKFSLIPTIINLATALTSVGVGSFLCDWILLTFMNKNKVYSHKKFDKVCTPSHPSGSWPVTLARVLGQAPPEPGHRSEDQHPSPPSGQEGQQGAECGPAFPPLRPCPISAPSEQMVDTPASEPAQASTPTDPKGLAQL
observed_property: IC50 (nM)

// solved cases for IC50 follow
CC(C)N1Cc2c(n(CC(=O)Nc3ccc(F)cn3)c3cc(C#N)nn3c2=O)C1=O    6950
COC[C@H](C)N1Cc2c(n(CC(=O)Nc3ccc(F)cn3)c3cc(C4CCC4)nn3c2=O)C1=O    3050
CCc1cc2n(CC(=O)Nc3ccc(F)cn3)c3c(c(=O)n2n1)CN(C[C@H]1CN(C(C)C)CCO1)C3=O    1590

[P] CC(C)[C@H](C)N1Cc2c(n(CC(=O)Nc3ccc(Cl)cn3)c3cc(C(C)(C)C)nn3c2=O)C1=O
[Q] CC(C)N1Cc2c(n(CC(=O)Nc3ccc(F)cn3)c3cc(C(=O)NC4CC4)nn3c2=O)C1=O
Ask: Which of these two has the smaller recorded IC50: P or Q ? Choose, then provide that item's label.
Reply: Q
(Q: 4800 nM, P: 8800 nM)
